Test system: MCF-10A
Method summary: Cytotoxicity against human MCF-10A cells assessed as reduction in cell viability
Assay type: cell-based
Would you kindly list pIC50 for each of these compounds?
Remember, pIC50 is on a log scale: it is -log10 of the molar concentration.

Would you kindly share the measured pIC50 for COc1cccc2c1C(=O)c1c(O)c3c(c(O)c1C2=O)C[C@@](O)(C(=O)CO)C[C@@H]3O[C@H]1C[C@H](N)[C@H](O)[C@H](C)O1 [DOXORUBICIN] ? 5.45

And for N#CC1=C(N)n2c(=O)c3ccccc3c(=O)n2C1c1ccccc1Cl (stereo not drawn) ? 3.67

And for N#CC1=C(N)n2c(=O)c3ccccc3c(=O)n2C1c1ccccc1OCCOc1ccccc1C1C(C#N)=C(N)n2c(=O)c3ccccc3c(=O)n21 (stereo not drawn) ? 4.21
